test_name: qHTS assay for measurement of the activity of small molecule inhibitors on Zika virus induced Caspase-3 activity in human iPSC derived neural progenitor cells (hNPCs) (AID 1224857); also: nearly all actives have a fitted effect of over 65% in size
assay_setup: hNPCs ZIKV-induced caspase-3/7, Caspase-Glo luminescence, 6 h; series mostly up to 45.7 µM
Records with an inconclusive call do not appear. Activity calls are given as the source filed them. Calls follow the shape of the dose curve; as a rule, active = well fitted inhibition curve with a large enough effect; inconclusive = small, poorly fitted or top-dose-only effect; inactive = no such curve, though single readings can be large or run the other way.
Respond using exactly one of the listed classes: YES (active), NO (inactive)

// below: answered compounds
Enquiry: Recorded test call requested for CCn1c(C(=O)N(C2CC2)C2CC2)cc2c3c(ncn3C)c(Nc3cc(C)n(C)n3)nc21
Return: NO

Enquiry: I would be grateful if you could indicate the recorded call for CC[C@H]1OC(=O)[C@H](C)C(=O)[C@H](C)[C@@H](O[C@H]2O[C@H](C)C[C@H](N(C)C)[C@@H]2O)[C@](C)(OC)C[C@@H](C)C(=O)[C@H](C)[C@H]2N(CCCCn3cnc(-c4cccnc4)c3)C(=O)O[C@]12C .
Return: NO

Enquiry: For O=C(O)CCc1nc(-c2ccccc2)c(-c2ccccc2)o1 , what call appears in the results of this test?
Return: NO

Enquiry: Just curious, what result did CCCCC1C(=O)N(c2ccccc2)N(c2ccccc2)C1=O get here?
Return: NO

More entries:
Enquiry: Call for entry COc1ccc(Cc2ccc(NC(N)=O)cc2)cc1-c1cccc(Cl)c1 :
Return: NO

Enquiry: Record lookup: outcome of this test for COc1cc(N2CCC(N3CCN(C)CC3)CC2)ccc1Nc1ncc(Cl)c(Nc2ccccc2S(=O)(=O)C(C)C)n1 ?
Return: NO

Enquiry: Identify the outcome logged in this assay for the compound shown: CC1(C)O[C@H]2C[C@@H]3[C@H]4CCC5=CC(=O)C=C[C@]5(C)[C@@]4(F)[C@@H](O)C[C@]3(C)[C@]2(C(=O)CO)O1
Return: NO

Enquiry: Field: outcome | Entry: NC(=S)c1ccc[n+]([C@@H]2O[C@@H](COP(=O)([O-])OP(=O)(O)OC[C@H]3O[C@@H](n4cnc5c(N)ncnc54)[C@H](OP(=O)(O)O)C3O)C(O)C2O)c1 (some centres not stated)
Return: NO

Enquiry: Which outcome was assigned to CC(C)n1nc(-c2ccc3oc(N)nc3c2)c2c(N)ncnc21 in this test?
Return: NO

Enquiry: Each compound tested received a call. Report the one for O=c1c(-c2ccc(O)cc2)coc2cc(O)ccc12 .
Return: YES

Enquiry: Status in this test for CO[C@H]1C[C@@H]2CC[C@@H](C)[C@@](O)(O2)C(=O)C(=O)N2CCCC[C@@H]2C(=O)O[C@H]([C@H](C)C[C@@H]2CC[C@H](OC(=O)C(C)(CO)CO)[C@H](OC)C2)CC(=O)[C@H](C)C=C(C)[C@@H](O)[C@@H](OC)C(=O)[C@H](C)C[C@H](C)C=CC=CC=C1C ?
Return: NO

Enquiry: # lookup: test call for CCc1ccc(OCc2ccccc2C(=O)Nc2ccc3nc(C)cc(N)c3c2)cc1
Return: NO

====

test_name: qHTS drug screen for cell cycle checkpoint inhibitors in PARPi-resistant BRCA-mutant ovarian cancer cell lines. (AID 1963452)
assay_setup: PEO1/OlaR viability, CellTiter-Glo luminescence, 96 h; active compounds read low
property_name: Z-AUC
API note: the answer field is a bare number with no unit suffix.

Some solved entries appear below for comparison.
Enquiry: Which Z-AUC value is on record for COc1ccc(-n2c(C)c([N+](=O)[O-])c3ccc(O)cc32)cc1 ?
Return: -0.721

Enquiry: Could you tell me which Z-AUC is on file for COc1ccc(-c2cc(=O)c3c(O)cc(O)cc3o2)cc1O ?
Return: 0.388

Enquiry: # query: Z-AUC of entry O=C(Nc1ccccc1-c1cn2c(CN3CCNCC3)csc2n1)c1cnc2ccccc2n1
Return: 0.244

Enquiry: Entry CS(=O)(=O)N(Cc1ccco1)CC(O)Cn1c2ccccc2c2ccccc21 (stereo not drawn) has what Z-AUC?
Return: 1.06

Enquiry: Requested field: Z-AUC. Item: CN1CCN(CCOc2cc(OC3CCOCC3)c3c(Nc4c(Cl)ccc5c4OCO5)ncnc3c2)CC1
Return: 0.642

---
Enquiry: Which Z-AUC is listed for N#Cc1ccc(NC(=O)Nc2ccccc2Br)c2n[nH]nc12 ?
Return: 1.45

Enquiry: Would you kindly share the measured Z-AUC for O=C1C(Cl)=C(NCCN2CCOCC2)C(=O)c2ncccc21 ?
Return: -1.13

Enquiry: What Z-AUC value was documented for this compound, Nc1ncnc2ccccc12 ?
Return: -0.0198

Enquiry: Requested read-out: Z-AUC. Entry: Nc1ncnc2c1nc(Cl)n2[C@@H]1O[C@H](CO)[C@@H](O)[C@@H]1O
Return: 0.764

====

Parameter: caspase-3 activation. Scope: all listed entries.
test_name: Cellular Toxicity (caspase-3) Mesangial (AID 660);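 also: combined caspase 3 and 7 activity read by Caspase-Glo luminescence; cells exposed to compound for 16 h before the caspase read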
assay_setup: mesangial cells, normalized: DMSO 0%, 100 µM tamoxifen 100%; at 91.7 µM (top of the series)
Provide only the numeric value, understood in %.

Study these solved cases before continuing.
Enquiry: Which caspase-3 activation is reported for this molecule? CC1=C(/C=C/C(C)=C/C=C/C(C)=C/C(=O)Nc2ccc(O)cc2)C(C)(C)CCC1
Return: 91

Enquiry: State the recorded caspase-3 activation for this entry: O=C1NC(=O)C(c2ccccc2)(c2ccccc2)N1
Return: 0.351

Enquiry: Fill in: caspase-3 activation of O=c1cc(-c2ccc(O)cc2)oc2cc(O)cc(O)c12 is ___
Return: -2.47

Enquiry: Given the molecule CC(=O)c1ccc(S(=O)(=O)NC(=O)NC2CCCCC2)cc1 , what is its reported caspase-3 activation?
Return: 0.0312

Enquiry: Which caspase-3 activation value belongs to O=C(O)Cc1cccc2ccccc12 ?
Return: 0.654

Others:
Enquiry: Would you mind telling me what caspase-3 activation value was observed for CN(C)CCC(c1ccccc1)c1ccccn1 (stereo unspecified) ?
Return: 0.331

====

test_name: Cell Viability - LYMP2-018 (AID 985);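 also: compound exposure lasted 24 hr at 37 °C; nearly all actives have a fitted effect of over 50% in size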
assay_setup: LYMP2-018 lymphoblastoid cells, viability (qHTS); series mostly up to 92.2 µM
Inconclusive results are not listed. Calls of active or inactive are those of the source. Calls follow the shape of the dose curve; as a rule, active = well fitted cell-killing curve with a large enough effect; inconclusive = small, poorly fitted or top-dose-only effect; inactive = flat fitted curve, though single readings scatter.
Give one outcome, nothing more. List: yes = active, no = inactive

Use these answered entries as a reference point.
Enquiry: Give the logged outcome of this assay for the following compound: CCCCC1C(=O)N(c2ccccc2)N(c2ccccc2)C1=O
Return: no

Enquiry: Dear all, I need the recorded test outcome for O=c1[nH]cnc2c1ncn2[C@H]1CC[C@@H](CO)O1 , thank you.
Return: no

Enquiry: Just curious, what result did O=C(O)c1cc(O)c2c(c1)C(=O)c1cccc(O)c1C2=O get here?
Return: no

Enquiry: Write down the call the test reported for this compound. Item: CC(=O)O[C@]1(C(C)=O)CC[C@H]2[C@@H]3C=C(Cl)C4=CC(=O)[C@@H]5C[C@@H]5[C@]4(C)[C@H]3CC[C@@]21C
Return: no

Enquiry: Called result for O=C1NC(=O)C(c2ccccc2)(c2ccccc2)N1
Return: no

Further cases:
Enquiry: Outcome logged for CC/C(=C(\c1ccccc1)c1ccc(OCCN(C)C)cc1)c1ccccc1 in this assay:
Return: yes

Enquiry: For CN(C)CCC(c1ccccc1)c1ccccn1 (stereo not drawn) , what call appears in the results of this test?
Return: no

Enquiry: Hey, what did the test say about CCCNC(=O)NS(=O)(=O)c1ccc(Cl)cc1 ?
Return: no

====

System: CP286
test_name: qHTS profiling for inhibitors of Plasmodium falciparum proliferation (AID 504749);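 also: 0% = DMSO vehicle and full inhibition = artemisinin control; nearly all actives have a fitted effect of over 60% in size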
assay_setup: P. falciparum in erythrocytes, SYBR Green DNA, 72 h; series mostly up to 28.7 µM
Records with an inconclusive call do not appear. Calls of active or inactive are those of the source. The call rests on the fitted dose curve; in most records, active means well fitted inhibition curve with a large enough effect; inconclusive means small, poorly fitted or top-dose-only effect; inactive means flat fitted curve, though single readings scatter.
property_name: outcome

Answered cases to consult:
Enquiry: Which outcome reading was recorded for the compound CN(C)CCC(c1ccccc1)c1ccccn1 (stereo unspecified) ?
Return: inactive

Enquiry: Which outcome is reported for this compound? Cc1cnc(C(=O)O)c[n+]1[O-]
Return: inactive

Enquiry: Return reported outcome; argument: NC(N)=Nc1nc(CSCC/C(N)=N/S(N)(=O)=O)cs1
Return: inactive

Enquiry: Field request: outcome | item: CCCCCN(C)CCC(O)(P(=O)(O)O)P(=O)(O)O
Return: inactive

Next:
Enquiry: // query outcome value for entry C[N+](C)(C)CCCCCC[N+](C)(C)C
Return: inactive

Enquiry: Query (compound): O=C(O)Cc1cccc2ccccc12 ; field requested: outcome
Return: inactive

Enquiry: Item under review: CCN1CCC[C@H]1CNC(=O)c1cc(S(N)(=O)=O)ccc1OC . Reported outcome?
Return: inactive

Enquiry: Which outcome is reported for this compound? CCN(CC)CCOC(=O)c1ccc(N)cc1
Return: inactive

Enquiry: Name the recorded outcome for CC(=O)N[C@@H](CS)C(=O)O .
Return: inactive

Enquiry: What value of outcome has been recorded for this entry: O=C(O)c1cc(-c2ccccc2)nc2ccccc12
Return: inactive

Enquiry: Any idea what its outcome is? The compound is O=C1Nc2ccc(Cl)cc2C(C#CC2CC2)(C(F)(F)F)O1 (stereo unspecified)
Return: inactive

Enquiry: Request the reported outcome associated with CC(=O)c1ccc(S(=O)(=O)NC(=O)NC2CCCCC2)cc1
Return: inactive

Enquiry: // lookup outcome for O=C1NC(=O)C(c2ccccc2)(c2ccccc2)N1
Return: inactive

Enquiry: // lookup outcome for CCOC(=O)O[C@]1(C(=O)OCCl)CC[C@@H]2[C@H]3CCC4=CC(=O)C=C[C@]4(C)[C@@H]3[C@@H](O)C[C@@]21C
Return: inactive

Enquiry: Which measured outcome value corresponds to CCN(CC)C(=O)c1ccc(O)c(OC)c1 ?
Return: inactive

Enquiry: Dear colleague, I am looking for the recorded outcome of the following compound: NCCS
Return: inactive

Enquiry: # input compound: CCN(CC)CCNC(=O)c1ccc(N)cc1 ; wanted: its outcome
Return: inactive

Enquiry: Given the entry CC1(C)O[C@H]2C[C@@H]3[C@H]4CCC5=CC(=O)C=C[C@]5(C)[C@@]4(F)[C@@H](O)C[C@]3(C)[C@]2(C(=O)CO)O1 , report its measured outcome.
Return: inactive

Enquiry: GET /values?readout=outcome&item= O=C(O)c1c(Cl)c(Cl)c(Cl)c(Cl)c1-c1c2cc(I)c(=O)c(I)c-2oc2c(I)c(O)c(I)cc12
Return: inactive

Enquiry: Recorded outcome of COc1ccccc1N1CCN(CCCNc2cc(=O)n(C)c(=O)n2C)CC1 , please.
Return: inactive

Enquiry: Need outcome of CCCNC(=O)NS(=O)(=O)c1ccc(Cl)cc1 , thanks.
Return: inactive
